Biological target: GCG receptor (GCGR) (UniProt P47871 26-477, limits assumed)
Sequence (P47871 26-477 limits assumed): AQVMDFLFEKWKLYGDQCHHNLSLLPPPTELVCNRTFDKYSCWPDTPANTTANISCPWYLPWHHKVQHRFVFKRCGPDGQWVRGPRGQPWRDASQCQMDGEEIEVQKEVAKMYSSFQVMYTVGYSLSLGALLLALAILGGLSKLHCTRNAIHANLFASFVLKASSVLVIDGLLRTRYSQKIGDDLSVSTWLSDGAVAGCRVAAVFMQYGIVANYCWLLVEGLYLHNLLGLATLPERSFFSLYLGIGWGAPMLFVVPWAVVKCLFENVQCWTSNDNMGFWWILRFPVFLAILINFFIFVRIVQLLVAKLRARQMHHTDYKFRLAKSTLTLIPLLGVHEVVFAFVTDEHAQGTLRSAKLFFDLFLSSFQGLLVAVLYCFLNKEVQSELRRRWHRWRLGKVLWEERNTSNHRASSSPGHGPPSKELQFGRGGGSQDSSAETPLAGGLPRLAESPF
Assay: cell-based or functional assay
Bridge positions count the residues as written; N and C are the ends. Square brackets hold non-standard residues; d marks the D form. Ends that are not written are not given here. stapled body chem0214 = not defined here; αMeL = CC(C)C[C@](C)(N)C(=O)O; Aib = CC(C)(N)C(=O)O
Some binders, each annotated with its measured GCG EC50 (nM); cAMP, agonistic activity.
measured.parameter: GCG EC50 (nM); cAMP, agonistic activity

{"columns": ["binder", "measured"],
 "data": [
  ["Y[Aib]QGTFTSDYSI[αMeL]LDKKAQ[Aib]KFIEYLLEGGPSSGAPPPS-NH2 (linker 17-21 via Glu, AEEA, AEEA, γGlu, C20 diacid) [Example 12]", 0.007],
  ["Y[Aib]QGTFTSDYSI[αMeL]KDKKAQ[Aib]AFIEYLLKGGPSSGAPPPS-NH2 (linker 14-17 via Ida, Lys, Lys, γGlu, C20 diacid; also: further groups not given here) [Example 41]", 0.015],
  ["Y[Aib]QGTFTSDYSI[αMeL]KDKKAQ[Aib]AFIEYLLEGGPSSGAPPPS-NH2 (bridge 14-17; not fully specified (bridges); also: stapled body (lipidated) structure only in drawing chem0251) [Example 45]", 0.029],
  ["Y[Aib]QGTFTSDYSI[αMeL]LDKKAQ[Aib][dK]FIEYLLEGGPSSGAPPPS-NH2 (linker 17-21 via stapled body chem0214; reading uncertain; also: further groups not given here) [Example 16]", 0.042]
]}
